Reference source for all entries: the supplement of paper PMC9170038

test system: MS2 coat protein; test: apparent KD of MS2 coat protein; higher = weaker reporter binding; details: Eterna round: R107; input ligand: theophylline 2 mM
Provide the reported apparent KD of MS2 coat protein of each item.
Answers are plain numbers, in nM.

Look over these answered cases.
GUGUACAUGAGGAUCACCCAUGUCGAGUUACGAGGACCGGUACGGCCGCCACUCGGCGGCUCGACACGGAUAGCGGUGCGUUGCU [Exclusion - Tryptophan A] = 35.4
UGUAUGGACUGAAGGAGCGGAAAAUAACCAUGAGGAUCACCCAUGGAAUAGGCGAAAGCCAUCCAGGUAGGUCGCAGUCCAUACU = 36.6
UAAUAAAUAAAUCCAAGGUGAAGGUCAGAUACCAGCCAGAUAACUGGCCCUUGGCAGCUGAAUAAACUUGAGGAUCACCCAGGUA [TheoAS 27 #OpenEnded #MS2Late #AlternativeMS2] = 548
ACAUGAGGAUCACCCAUGUCACUCGUGUUCCGAGGACCGGUACGGCCGCCACUCGGUCCUCGCGAGGAUGGUCAAAGACUAUCCA [Omei Trp A SS B v2] = 71.4
GGGUACAUCGCGGCCGCCACUCAUGUAAAUGCAUGAGGAUCACCCAUGUCGAUGGAGACAUCGGAGAGGACCGGGUGAUGUACCG = 313
GCACCAGGUACGGAUACCAGACAUUGCCAAUUGGGUGAACAUGAGGAUCACCCAUGUUAAGUCCCUUGGCAGCCGUACCUGGUGC [ETB NP+V+V2 #6 Same Structure] = 178
GGGUACAUCGCGGCCGCCACUCGUGUAAAUACAUGAGGAUCACCCAUGUCGAUGGAGACAUCGGCGAGGACCGGGUGAUGUACCG = 53.5
ACAUGAGGAUCACCCAUGUACAUAAGGGAAGGAGCGCGGUGAAACGCAGGUAGGUCGCCCAUAAUAUCUAACAUUAAAUUCAUGU [LeftA3] = 20
AUAACCCUUGACUAAAACACUAAAUCAGUUCGAGGACCGGUACGGCCGCCACUCGUGUCAAGACAUGAGGAUCACCCAUGUACCU [Isbe] = 44.3
UAUAAUAACUCGGCCGCCACUGGCACAUGAGGAUCACCCAUGUCUAUAUAUAAUAUAUAGUUGCACAGGACCGGGAGAUAUAUAU [Exclusion - Tryptophan B] = 10.5

Batch request: apparent KD of MS2 coat protein for each of the following sequences.
1. GGUAUGUAUUCGGAAACGAAUGCAUACCAACGAGGACCGGUACGGCCGCCACUCGCCGUCCUCAAACAUGAGGAUCACCCAUGUA [Ex Tryptophan A 7]
2. AACAUGAGGAUCACCCAUGUAUUGGGUGAUACCAGCCUGAAUAAGGGCCCUUGGCAGCACCGCGCUAACUUUAUGUCUGCGAACC [Rebiercete]

1: 30.6; 2: 368
